Entries annotated with measured protein stability index
Assay: protein stability index of a GFP-peptide fusion (yeast GPS) (PSI 1-4); higher = more stable; sorted into four equal gates, so the index is relative within each strain
Conditions: san1∆
ENDPOINT_NAME: protein stability index

SEQ_TEXT | OBSERVED_RESULT
NKEYTLVHGIFGAKMSR [SIN4] | 3.15
ATVDEFPLCVHLVSNEL [RPL10] | 3.05
ATYMDNDIAGQPQALQK [RPO21] | 2.5
EFFNPEIFHLLQPLEEG [SIN4] | 1.59
QQQMANNNGNPGTTSTG [GAL11] | 3.26
ATRTLVASIQNDPSAEV [YCG1] | 2.79
EVFIGRVKDQDGRVNRF [YJR042W/NUP85] | 3.5
AVVGNNMLLDPAANESE [RRP42] | 2.48
PLLARKQFVVDVLHPNR [RPS24A] | 1.72
DDETPSCEVEEIGLLGG [SNU114] | 3.26
EVDKSKLITTYISLLKL [YDL116W/NUP84] | 1.27
QILTVDPKTSLRIVKPT [RPC82] | 3.09
ILNLYSSAHLIRINDEP [YML103C/NUP188] | 1.8
SELDSNDFFIIYYTPAF [YJL039C/NUP192] | 1.63
YRTPGSSGVLSSNIAGT [SSN2] | 3.03
LLQVNKTFCEDPFSDVD [GRR1] | 3.32
IVACELILSGDTTANNG [YJL039C/NUP192] | 2
TQKTELEIDNKDSVTEC [SIR4] | 2.78
KGAATGKGRQSAKAELE [PRE10] | 1.45
NTLGKGQNCLDIDGIMD [SNU114] | 3.02
LKISGEEESLHVFQYAN [RPC37] | 2.27
HFFQIDGFNKTFHDELN [YML103C/NUP188] | 2.67
QQQQQQQNPKFLQSQRQ [SWI1] | 2.79
VPVALKGQGPFTLTYDI [YMR129W/POM152] | 2.83
IEQFAMRRNSKILNIIK [POP5] | 2.86
LQYTALTGSPNNPLVQK [ARP7] | 2.34
GETMWVPIKSSKSGRIF [RPN13] | 2.81
LQDELKELQLEKESVEK [SMC3] | 2.7
EAVKQAAKIIYLAHEDN [PRE10] | 3.3

----------
Entries annotated with measured protein stability index
Assay: protein stability index of a GFP-peptide fusion (yeast GPS) (PSI 1-4); higher = more stable; sorted into four equal gates, so the index is relative within each strain
Details: ubr1∆
ENDPOINT_NAME: protein stability index

SEQ_TEXT | OBSERVED_RESULT
SDAQSNLGSNVRNSFPL [REC8] | 3.07
LHYLKKFKHIDDKYGRK [SRP72] | 2.85
GGLSGEESIKIYPLIKP [UBP6] | 2.16
IPVIALTDLDSPSEFVD [RPS0A] | 2.42
IKKVICGAWEPAITIEK [SIR3] | 2.58
KQRLDLARQVKLLLLNT [YIL149C/MLP2] | 1.88
MSSQIIDRPKHELSRAE [SMD2] | 3.25
KHLWDQKSLAALKKSRS [RPC17] | 2.81
SASDALKGRVVEVCLAD [RPS1A] | 2.43
VIKRLEASTVPWGDYLQ [BRR2] | 1.35
SFAIYSSTIDAPAFHTS [SRB8] | 2.25
NILTTHLSHPGTNKDMI [ECM29] | 2.05
EDIIKRTSPIDNVSNTH [NUT2] | 3.04
PTQTKGNDAKPAKVEDV [YLR335W/NUP2] | 3.1
GLESLLNIGLGAVGLKD [YCS4] | 2.68
